Biological target: T1, GFP-9S library array, motif 4 ND N98I;D124E (synthetic construct, N98I;D124E)
T1 chain: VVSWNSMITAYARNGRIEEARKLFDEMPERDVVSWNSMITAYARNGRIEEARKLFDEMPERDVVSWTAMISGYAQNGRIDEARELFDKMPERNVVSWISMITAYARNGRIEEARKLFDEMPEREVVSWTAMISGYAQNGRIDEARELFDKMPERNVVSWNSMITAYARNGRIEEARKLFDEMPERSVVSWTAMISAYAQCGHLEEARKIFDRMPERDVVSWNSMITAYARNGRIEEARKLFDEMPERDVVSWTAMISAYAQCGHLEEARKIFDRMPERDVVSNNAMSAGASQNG
Assay: high-throughput RNA pulldown from lysate on Ni-NTA beads; HRP: 50 mM Tris pH 8, 150 mM NaCl, 1 mM beta-mercaptoethanol, 50 ug/ml BSA, 3 ug/ml yeast RNA, 0.5% heparin; ITC and FP: Tris pH 8, 200 mM KCl, 5% glycerol; MST: 50 mM Tris pH 8, 200 mM NaCl, 1 mM DTT, BSA, heparin, 0.05% Tween 20
Conditions: tags: N-terminal His-eGFP; label: 5' Cy5
METRIC_NAME: Kd (nM)
Numeric answer only, unit nM assumed.

Qu. Dear colleague, I am looking for the recorded Kd of the following binder: AUUACACGUGA (ssRNA) [Cy5-rpoA]
Ans. 97.2

Qu. Let us now turn to AUUAGACGUGA (ssRNA) [Cy5-rpoA-G]
Ans. 78.6
